Target: Grb2 SH2 (UniProt P62993)
Sequence (P62993 whole entry, looked up, the tested form may be a part): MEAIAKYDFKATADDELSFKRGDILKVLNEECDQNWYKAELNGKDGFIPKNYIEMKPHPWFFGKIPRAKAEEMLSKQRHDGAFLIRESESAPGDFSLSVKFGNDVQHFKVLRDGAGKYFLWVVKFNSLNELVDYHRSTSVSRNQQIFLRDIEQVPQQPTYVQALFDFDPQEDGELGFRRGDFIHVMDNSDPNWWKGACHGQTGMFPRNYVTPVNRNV
Assay: SH2 binding enrichment of the phosphorylated peptide, bacterial display (enrichment ratio); higher = better substrate or ligand; peptides without Tyr show the background;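 further: peptide library displayed on the E. coli surface as eCPX fusions, selected cells deep-sequenced, score is each peptide's frequency after selection divided by its frequency in the input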
MEASURED_ENDPOINT: SH2 binding enrichment

SEQUENCE_TEXT: FFFDLYGGEKF [PTPN11_Y66_D61Y_YF]
RECORDED_RESULT: 0.831

Ask: Recorded SH2 binding enrichment of GFILMYDITNK [RAB3C_Y110_E115K] , please.
Reply: 0.944

Ask: Recorded SH2 binding enrichment of FADIAYNYRDG [PAH_Y166_H170D] , please.
Reply: 1.12

Ask: Recorded SH2 binding enrichment of AVVEPYNSILT [TUBA1A_Y185] , please.
Reply: 0.866

Ask: Recorded SH2 binding enrichment of ADMETYLLEKS [MYH7_Y266_I263M] , please.
Reply: 0.67

Ask: Recorded SH2 binding enrichment of LWQSIYNLEAE [TNNT2_Y251] , please.
Reply: 1.09

Ask: Recorded SH2 binding enrichment of TEVIWYKGDEE , please.
Reply: 0.484

Ask: Recorded SH2 binding enrichment of LVSCTYQLARG [FGFR2_Y608] , please.
Reply: 0.894
